pKi: −log10 of the molar value.
Form: system (VchCAβ (Vibrio cholerae, UniProt Q9KUD6)), quantity (pKi), values below.

compound	assaySystem	pKi
Cc1ccc(NC(=O)NCc2cn(CCCCS(N)(=O)=O)nn2)cc1 [compound 19, 19]	VchCAβ (Vibrio cholerae, UniProt Q9KUD6)	5.54
COc1cccc(NC(=O)NCc2cn(CCCCS(N)(=O)=O)nn2)c1 [compound 22, 22]	VchCAβ (Vibrio cholerae, UniProt Q9KUD6)	5.71
NS(=O)(=O)CCCCn1cc(COc2ccccc2)nn1 [compound 14, 14]	VchCAβ (Vibrio cholerae, UniProt Q9KUD6)	5.16
NS(=O)(=O)CCCn1cc(CNC(=O)Nc2ccc(C(F)(F)F)cc2)nn1 [compound 7, 7]	VchCAβ (Vibrio cholerae, UniProt Q9KUD6)	6.17
COc1ccc(OCc2cn(CCCCS(N)(=O)=O)nn2)cc1 [compound 16, 16]	VchCAβ (Vibrio cholerae, UniProt Q9KUD6)	5.21
NS(=O)(=O)CCCCn1cc(CNC(=O)Nc2ccc(F)cc2)nn1 [compound 18, 18]	VchCAβ (Vibrio cholerae, UniProt Q9KUD6)	5.47
COc1cccc(NC(=O)NCc2cn(CCCS(N)(=O)=O)nn2)c1 [compound 9, 9]	VchCAβ (Vibrio cholerae, UniProt Q9KUD6)	5.76
NS(=O)(=O)CCCn1cc(COc2ccccc2)nn1 [compound 1, 1]	VchCAβ (Vibrio cholerae, UniProt Q9KUD6)	5.38
COc1ccc(OCc2cn(CCCS(N)(=O)=O)nn2)cc1 [compound 3, 3]	VchCAβ (Vibrio cholerae, UniProt Q9KUD6)	5.53
NS(=O)(=O)CCCCn1cc(CNC(=O)Nc2ccc(C(F)(F)F)cc2)nn1 [compound 20, 20]	VchCAβ (Vibrio cholerae, UniProt Q9KUD6)	5.52
NS(=O)(=O)CCCn1cc(CNC(=O)Nc2ccc(F)cc2)nn1 [compound 5, 5]	VchCAβ (Vibrio cholerae, UniProt Q9KUD6)	6.03
Cc1ccc(NC(=O)NCc2cn(CCCS(N)(=O)=O)nn2)cc1 [compound 6, 6]	VchCAβ (Vibrio cholerae, UniProt Q9KUD6)	6.09
